Source of measurements: patent EP4721754A1

assayed target: T1, calcitonin receptor (hCTR) (human, UniProt P30988 25-474)
T1 sequence (looked up): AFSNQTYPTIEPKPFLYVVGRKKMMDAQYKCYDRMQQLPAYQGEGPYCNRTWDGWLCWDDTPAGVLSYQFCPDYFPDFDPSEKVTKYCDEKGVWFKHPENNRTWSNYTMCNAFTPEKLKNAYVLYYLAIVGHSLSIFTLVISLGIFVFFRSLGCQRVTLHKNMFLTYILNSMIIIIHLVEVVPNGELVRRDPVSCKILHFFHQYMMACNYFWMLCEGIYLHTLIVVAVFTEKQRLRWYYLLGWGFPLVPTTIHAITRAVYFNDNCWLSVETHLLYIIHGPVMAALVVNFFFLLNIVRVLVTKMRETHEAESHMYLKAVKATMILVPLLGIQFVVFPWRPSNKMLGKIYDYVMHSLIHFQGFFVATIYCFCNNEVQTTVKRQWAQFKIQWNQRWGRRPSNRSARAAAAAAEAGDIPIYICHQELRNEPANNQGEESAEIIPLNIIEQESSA
experiment description: cell-based or functional assay
Numbered stars: 1 amine (or outer) side, 2 acyl side, 3 side chain; on linkers, the order of the positions; unused ones are H or OH. Primed or numbered codes have the meaning given here. * marks the point of attachment. C22 diacid′ = docosanedioic acid (C22 diacid) acyl; C18 diacid = O=C(O)CCCCCCCCCCCCCCCCC(=O)*; γGlu = O=C(O)[C@H](CCC(=O)[*:2])N[*:1]
readout name: EC50, CRE-luciferase reporter in calcitonin receptor/CRE-luc CHO cells, 24 h (nM)

Prompt: Kindly indicate its recorded EC50, CRE-luciferase reporter in calcitonin receptor/CRE-luc CHO cells, 24 h. Item: ASQLSTAVLGRLSDELHRLQDYPRTDVGSGSP (not fully specified; N terminus: C20 diacid + yGlu+2 AEEAs) [M18]
Response: 0.069

P: {C18 diacid}-EASQLSTAVLGRLSDELHRLQDYPRTDVGSGSP-NH2 [M11]
Q: {C22 diacid′-γGlu}-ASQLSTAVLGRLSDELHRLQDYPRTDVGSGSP-NH2 (ends and bridges not checked) [M7]
Prompt: Compare P and Q and name the one whose reported EC50, CRE-luciferase reporter in calcitonin receptor/CRE-luc CHO cells, 24 h is smaller. Reply briefly: the label of your chosen item.
Response: P
